In this section, each of the compounds is paired with its reported growth.
Test system: LOX IMVI melanoma
assay explanation: NCI-60 one-dose screen, 48 h (100 = growth as untreated, 0 = no growth, -100 = all killed)
recorded conditions: 10 µM
Compounds without any hit were thinned out: in the full panel of roughly 83,000, 20% have a hit.
A number alone suffices; assume %.

compound	growth (%)
C/C=C\COc1cc(C)c(Cl)cc1Cl	106
Cc1cccc2c(Nc3ccc(NS(C)(=O)=O)cc3)c3ccc([N+](=O)[O-])cc3nc12	-43.5
CCCCCCCCCCCCCCCCCBr	101

Now consider a different compound.
Problem: Item under review: O=CNc1c(Cl)cc2c(c1Cl)Cc1cc([N+](=O)[O-])ccc1-2 . Reported growth?
Result: 55.7

###

System: SF-268 CNS
assay explanation: NCI-60 one-dose screen, 48 h
recorded conditions: 10 µM
Procedure: Cells are grown in 96 well plates and exposed to the test compound for 48 hours. Compounds are tested at a single concentration, which is 10^-5 M for most compounds. The reported endpoint is percent growth (GI% or GIPRCNT), where numbers from 0 - 100% represent growth inhibition, and numbers from -100% - 0 represent cell death. For example, a value of 40 represents 60% growth inhibition. A value of 0 means no net growth occurred over the course of the experiment. […]
This is part of a sample that, as a whole, favours compounds with a hit. Of some 83,000 tested, about 20% had one in any assay. Calls of active or inactive are those of the source. Rule for the calls: active = growth percent below 10; inactive = the rest.
Give your call using only these classes: active, inactive

// known answers, use as guide
compound	tested system	assigned class
Cc1noc(C)c1-c1ccc2nc(NC(=O)[C@H]3CCN(C#N)C3)cn2c1	SF-268 CNS	inactive
O=C(OCC1OC(n2cc(C(F)(F)F)c(=O)[nH]c2=O)CC1OC(=O)c1ccc([N+](=O)[O-])cc1)c1ccc([N+](=O)[O-])cc1 (stereo not drawn)	SF-268 CNS	inactive

Problem: Given CCCCN(CCCC)c1ccc(C(=NC(C)CCCN(CC)CC)c2ccc(N(C)C)cc2)cc1 (stereo not drawn) , state the outcome it received in this test.
Result: active

Problem: Given COc1ccc(-c2nc3sc(-c4ccccc4)c(-c4ccccc4)n3c2/C=C/c2ccc(F)cc2)cc1 , state the outcome it received in this test.
Result: inactive

Problem: Given C/C(=N\NC(N)=S)C(C)(C)O , state the outcome it received in this test.
Result: inactive

###

Tested on: OVCAR-4 ovarian
assay explanation: NCI-60 one-dose screen, 48 h
recorded conditions: 10 µM
About 83,000 compounds went through this panel and 20% of them were active in at least one assay; those are over-represented in the sample as a whole. Activity calls are given as the source filed them. The calls were made as follows: active = growth percent below 10; inactive = the rest.
Give your call using only these classes: T for active, F for inactive

// known answers, use as guide
molecule	tested system	assigned class
N#CCC1CCCC1	OVCAR-4 ovarian	F
CC1(CO)CCCC12OCCO2 (stereo unspecified)	OVCAR-4 ovarian	F
Nc1nsc(C(=O)c2ccc(O)cc2)n1	OVCAR-4 ovarian	F
CN(C)CCCN(Cc1ccccc1O)C(=S)Nc1ccc(Cl)cc1	OVCAR-4 ovarian	F
COc1ccc(-c2[nH]ncc2-c2cc(OC)c(OC)c(OC)c2)cc1	OVCAR-4 ovarian	F

Next:
Problem: Given Nc1ccc(C2=CC(c3ccc(Cl)cc3)N3C=CSC3=N2)cc1 (stereo unspecified) , state the outcome it received in this test.
Result: T
